Recorded inhibition at 10 µM by entry
# Tested On: human EP1 receptor (Homo sapiens)
# Sequence (P34995 whole entry): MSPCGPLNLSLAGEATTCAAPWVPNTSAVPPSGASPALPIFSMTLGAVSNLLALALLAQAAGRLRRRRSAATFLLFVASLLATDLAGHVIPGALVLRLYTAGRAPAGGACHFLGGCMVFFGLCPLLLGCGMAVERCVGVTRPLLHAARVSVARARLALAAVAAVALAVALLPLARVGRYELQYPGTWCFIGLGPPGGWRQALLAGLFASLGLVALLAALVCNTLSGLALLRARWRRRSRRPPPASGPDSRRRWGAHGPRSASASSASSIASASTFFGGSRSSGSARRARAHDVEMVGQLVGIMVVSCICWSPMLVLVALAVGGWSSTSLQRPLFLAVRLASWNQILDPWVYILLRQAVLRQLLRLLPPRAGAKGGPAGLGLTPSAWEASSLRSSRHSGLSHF
# Experiment Notes: Test 2: Measurement of IP1 responses by HTRF, suspended HEK-293 cells stably expressing human EP1 receptors, PGE2 30 nM
# Format: cell-based
# Design: expressed in transfected cells
# Stated Conditions: HEK293, at 10 μM, read-out: Results of Test 2 (Functional assay), % inh

Would you please look over these solved cases?
O=C(O)c1cccc2c1ccn2Cc1cc(Cl)ccc1OCc1ccc(F)cc1: > 75%
O=C(O)c1cccc2c1ccn2Cc1cc(F)ccc1OCc1ccc(F)cc1C(F)(F)F: > 75%
O=C(O)c1ncnc2c1ccn2Cc1cc(Cl)ccc1OCc1ccc(F)cc1F: > 75%
O=C(O)c1ccc2c(ccn2Cc2cc(Cl)ccc2OCC2CC2)c1: > 75%

Now look at this one.
Data request: What inhibition at 10 µM value was documented for this compound, O=C(O)c1cccc2c1ccn2Cc1cc(Cl)cc(Br)c1OCc1c(F)cccc1F ?
Data returned: 45 to 75%
